- TARGET UNDER TEST: T1, soluble heterodimeric hCD3ε/δ.mFc protein (human)
- T1 construct: also called soluble human CD3; human CD3 heterodimeric protein
- T1 sequence (P07766 23-126, stated change not applied, chain 1 of 2): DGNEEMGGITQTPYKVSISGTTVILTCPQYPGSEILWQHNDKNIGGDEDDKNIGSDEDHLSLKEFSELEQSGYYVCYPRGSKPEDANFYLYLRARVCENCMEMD
- T1 sequence (P04234 22-105, stated change not applied, chain 2 of 2, further chain): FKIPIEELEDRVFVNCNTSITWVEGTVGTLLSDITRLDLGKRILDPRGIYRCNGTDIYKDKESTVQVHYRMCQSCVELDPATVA
- PROTOCOL NOTES: SPR 37 C, antigen-capture format
MEASURED PROPERTY: T½ (min)

BSPSMA/CD3-1900 (bispecific antibody) chain 1: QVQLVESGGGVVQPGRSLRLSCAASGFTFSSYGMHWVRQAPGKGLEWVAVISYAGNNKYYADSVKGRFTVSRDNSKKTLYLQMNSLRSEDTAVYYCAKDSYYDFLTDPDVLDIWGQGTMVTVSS chain 2: EVQLVESGGGLVQPGRSLRLSCAASGFTFDDYSMHWVRQAPGKGLEWVSGISWNSGSIGYADSVKGRFTISRDNAKNSLYLQMNSLRAEDTALYYCAKDGSGYGKFYHYGMDVWGQGTTVTVSS chain 3: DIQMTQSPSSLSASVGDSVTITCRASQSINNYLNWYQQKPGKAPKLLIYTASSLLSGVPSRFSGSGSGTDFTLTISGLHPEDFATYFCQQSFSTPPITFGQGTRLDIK | 2.3
BSPSMA/CD3-1400 (bispecific antibody) chain 1: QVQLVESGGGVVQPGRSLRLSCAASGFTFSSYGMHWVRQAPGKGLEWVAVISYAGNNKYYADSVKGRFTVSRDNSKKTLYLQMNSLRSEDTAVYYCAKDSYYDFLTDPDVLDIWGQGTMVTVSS chain 2: EVQLVESGGGLVQPGRSLRLSCAASGFTFDDYSMHWVRQAPGKGLEWVSGISWNSGSIGYADSVKGRFTISRDNAKNSLYLQMNSLRAEDTALYYCAKYGSGYGKFYHYGMDVWGQGTTVTVSS chain 3: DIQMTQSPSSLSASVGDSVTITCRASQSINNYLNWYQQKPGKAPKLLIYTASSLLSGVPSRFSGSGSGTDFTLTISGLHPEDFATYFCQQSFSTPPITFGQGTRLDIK | 3.5
